Test system: TNF-α
Assay: TNF-α expression in LPS stimulated PBMCs (Meso Scale)
Type: cell-based, human
Details: Homo sapiens, PBMC, compound concentration 0.1 μM
Assay Readout: inhibition at 0.1 µM (%)
# output: bare number, implied unit %

- Cc1ccc(CNC(=O)NCc2scc3c2CN(C2CCC(=O)NC2=O)C3=O)cc1Cl (stereo not shown): 95
- Cc1ccc(NC(=O)NCc2scc3c2CN(C2CCC(=O)NC2=O)C3=O)nc1Cl (stereo not shown): 58
- Cc1ccc(NC(=O)NCc2scc3c2CN(C2CCC(=O)NC2=O)C3=O)cc1Cl (stereo not shown): 98

Let us examine a further case.
Provide inhibition at 0.1 µM value for the following compound: Cc1cc(C)c(NC(=O)NCc2scc3c2CN(C2CCC(=O)NC2=O)C3=O)cc1Cl (stereo not shown) 62

----------
Molecular target: GSPT1 (Homo sapiens, UniProt P15170)
Construct: Whole cell extracts were prepared using RIPA buffer according to manufacturer's protocol (Pierce); endogenous in cells
Sequence (P15170 whole entry): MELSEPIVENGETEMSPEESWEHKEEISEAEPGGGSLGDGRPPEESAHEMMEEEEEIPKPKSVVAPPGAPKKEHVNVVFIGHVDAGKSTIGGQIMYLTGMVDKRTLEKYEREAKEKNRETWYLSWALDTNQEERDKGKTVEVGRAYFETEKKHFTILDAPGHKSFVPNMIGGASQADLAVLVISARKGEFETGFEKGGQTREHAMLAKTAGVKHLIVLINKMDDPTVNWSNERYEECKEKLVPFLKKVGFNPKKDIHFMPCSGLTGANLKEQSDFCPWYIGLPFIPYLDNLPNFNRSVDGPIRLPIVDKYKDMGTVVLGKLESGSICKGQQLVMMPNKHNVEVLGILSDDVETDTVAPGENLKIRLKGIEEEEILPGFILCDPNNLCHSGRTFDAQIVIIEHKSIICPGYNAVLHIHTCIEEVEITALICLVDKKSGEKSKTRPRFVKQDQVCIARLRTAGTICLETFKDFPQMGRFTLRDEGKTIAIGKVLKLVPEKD
Sequence (Q96SW2 whole entry, further chain): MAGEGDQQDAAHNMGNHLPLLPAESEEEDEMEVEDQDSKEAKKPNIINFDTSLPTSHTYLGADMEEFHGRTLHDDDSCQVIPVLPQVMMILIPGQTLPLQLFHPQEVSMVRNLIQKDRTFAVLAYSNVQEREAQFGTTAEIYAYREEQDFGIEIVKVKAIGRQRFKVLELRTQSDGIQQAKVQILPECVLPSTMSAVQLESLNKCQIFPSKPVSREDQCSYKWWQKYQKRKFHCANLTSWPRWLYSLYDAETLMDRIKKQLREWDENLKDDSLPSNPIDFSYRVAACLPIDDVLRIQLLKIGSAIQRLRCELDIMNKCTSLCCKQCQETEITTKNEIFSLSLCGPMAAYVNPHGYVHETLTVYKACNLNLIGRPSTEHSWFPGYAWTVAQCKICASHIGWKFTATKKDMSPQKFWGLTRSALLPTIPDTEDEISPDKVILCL
Sequence (Q16531 whole entry partner): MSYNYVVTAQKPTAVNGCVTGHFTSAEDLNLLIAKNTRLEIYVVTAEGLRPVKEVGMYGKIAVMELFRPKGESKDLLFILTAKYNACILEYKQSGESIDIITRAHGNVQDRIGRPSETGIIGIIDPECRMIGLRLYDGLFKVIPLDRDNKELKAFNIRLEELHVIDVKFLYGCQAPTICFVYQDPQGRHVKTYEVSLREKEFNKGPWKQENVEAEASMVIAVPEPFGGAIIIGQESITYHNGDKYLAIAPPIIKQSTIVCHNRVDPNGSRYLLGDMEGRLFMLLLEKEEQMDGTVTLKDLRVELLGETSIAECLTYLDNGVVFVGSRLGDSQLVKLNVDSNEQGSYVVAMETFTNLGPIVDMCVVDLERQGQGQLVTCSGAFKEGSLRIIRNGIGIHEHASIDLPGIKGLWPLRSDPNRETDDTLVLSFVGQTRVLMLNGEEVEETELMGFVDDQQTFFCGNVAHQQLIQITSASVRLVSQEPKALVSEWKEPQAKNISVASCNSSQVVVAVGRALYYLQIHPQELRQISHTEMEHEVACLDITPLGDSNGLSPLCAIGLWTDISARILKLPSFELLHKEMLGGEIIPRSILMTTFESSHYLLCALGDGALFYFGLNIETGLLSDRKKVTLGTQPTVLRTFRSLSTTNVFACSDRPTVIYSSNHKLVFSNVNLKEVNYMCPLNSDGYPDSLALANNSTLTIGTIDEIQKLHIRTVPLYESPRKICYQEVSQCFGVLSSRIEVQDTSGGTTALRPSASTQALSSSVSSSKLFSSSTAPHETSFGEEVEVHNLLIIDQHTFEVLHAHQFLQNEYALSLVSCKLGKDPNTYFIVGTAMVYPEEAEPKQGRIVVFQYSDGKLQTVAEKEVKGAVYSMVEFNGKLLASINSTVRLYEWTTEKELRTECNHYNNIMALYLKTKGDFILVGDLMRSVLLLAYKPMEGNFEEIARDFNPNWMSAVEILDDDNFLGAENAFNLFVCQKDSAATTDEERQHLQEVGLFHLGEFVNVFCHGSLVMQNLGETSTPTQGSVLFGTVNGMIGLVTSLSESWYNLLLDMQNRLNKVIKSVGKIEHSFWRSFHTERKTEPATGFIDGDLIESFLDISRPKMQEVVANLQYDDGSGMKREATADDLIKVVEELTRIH
Assay: GSPT1 protein levels by Western Blot analysis
Type: cell-based
Conditions: 1 μM compound concentration; DMSO = 100.00
Assay Readout: remaining activity at 1 µM
Write the numeric value and append its unit.

* Cc1cc(C)c(NC(=O)NCc2scc3c2CN([C@H]2CCCC(=O)NC2=O)C3=O)cc1Cl [Compound 36] | 32.6%
* Cc1ccc(NC(=O)NCc2scc3c2CN([C@H]2CCCC(=O)NC2=O)C3=O)cn1 [Compound 37] | 154%
* O=C1CCC[C@H](N2Cc3c(csc3CNC(=O)Nc3ccc(C(F)(F)F)c(Cl)c3)C2=O)C(=O)N1 [Compound 32] | 29.3%

Let us examine a further case.
Provide remaining activity at 1 µM value for the following compound: Cc1ccc(NC(=O)NCc2scc3c2CN([C@H]2CCCC(=O)NC2=O)C3=O)cc1Cl [Compound 30] 5.28%

----------
Catalogue of compounds with associated remaining activity at 0.1 µM
Target: GSPT1 (Homo sapiens)
Construct: Whole cell extracts were prepared using RIPA buffer according to manufacturer's protocol (Pierce); endogenous in cells
Test: GSPT1 protein levels by Western Blot analysis
Assay type: cell-based
Conditions: 100 nM compound concentration; DMSO = 100.00
# output: bare number, implied unit %

* Cc1ccc(NC(=O)NCc2scc3c2CN([C@H]2CCCC(=O)NC2=O)C3=O)cc1C(F)(F)F | 49

Provide remaining activity at 0.1 µM value for the following compound: Cc1ccc(CNC(=O)NCc2scc3c2CN(C2CCC(=O)NC2=O)C3=O)cc1Cl (stereo not shown) 5.9

----------
Tested on: MDA-MB-231 cells
Assay: MDA-MB-231 cell viability (CellTiter-Glo)
Assay type: cell-based
Conditions: Homo sapiens, 72 h, 10 μM compound concentration, 3 days, DMSO = 100.00
Catalogue of compounds with associated viability at 10 µM
# output: bare number, implied unit %

Field: example entries. Status: answers known.
- Cc1ccc(NC(=O)NCc2scc3c2CN([C@H]2CCCC(=O)NC2=O)C3=O)cc1C(C)C: 30.5
- Cc1ccc(NC(=O)NCc2scc3c2CN(C2CCC(=O)NC2=O)C3=O)cc1C(F)(F)F (centres unmarked): 22.4
- Cc1c(Cl)cc(NC(=O)NCc2scc3c2CN(C2CCC(=O)NC2=O)C3=O)cc1C(C)C (centres unmarked): 21.7
- Cc1cc(C)c(NC(=O)NCc2scc3c2CN(C2CCC(=O)NC2=O)C3=O)cc1Cl (centres unmarked): 19.7
- O=C1CCC(N2Cc3c(csc3CNC(=O)Nc3ccc(C(F)(F)F)c(Cl)c3)C2=O)C(=O)N1 (centres unmarked): 19

Provide viability at 10 µM value for the following compound: `Cc1ccc(CNC(=O)NCc2cc3c(s2)C(=O)N([C@H]2CCCC(=O)NC2=O)C3)cc1Cl` 101

Provide viability at 10 µM value for the following compound: Cc1ccc(NC(=O)Nc2scc3c2CN(C2CCC(=O)NC2=O)C3=O)cc1Cl (centres unmarked) 95.7

Provide viability at 10 µM value for the following compound: `Cc1ccc(NC(=O)NCc2scc3c2CN([C@H]2CCCC(=O)NC2=O)C3=O)nc1Cl` 52

Provide viability at 10 µM value for the following compound: `Cc1ccc(NC(=S)NCc2scc3c2CN([C@H]2CCCC(=O)NC2=O)C3=O)cc1Cl` 30

Provide viability at 10 µM value for the following compound: `Cc1ccc(CNC(=O)NCc2scc3c2CN([C@H]2CCCC(=O)NC2=O)C3=O)cc1Cl` 44.4

Provide viability at 10 µM value for the following compound: `Cc1c(Cl)cc(NC(=O)NCc2scc3c2CN([C@H]2CCCC(=O)NC2=O)C3=O)cc1C(C)C` 23.7

Provide viability at 10 µM value for the following compound: `Cc1ccc(NC(=O)NCc2scc3c2CN([C@H]2CCCC(=O)NC2=O)C3=O)cn1` 97.7

Provide viability at 10 µM value for the following compound: `Cc1ccc(NC(=O)NCc2scc3c2CN([C@H]2CCCC(=O)NC2=O)C3=O)cc1C(F)(F)F` 27.6

----------
Target: GSPT1 (Homo sapiens, UniProt P15170)
Construct: Whole cell extracts were prepared using RIPA buffer according to manufacturer's protocol (Pierce); endogenous in cells
Assay: GSPT1 protein levels by Western Blot analysis
Format: cell-based
Settings: 100 nM compound concentration; DMSO = 100.00
So basically: is remaining activity at 0.1 µM under 40%? Then fulfilled. Not under? Then not fulfilled.

* Cc1ccc(NC(=O)NCc2scc3c2CN([C@H]2CCCC(=O)NC2=O)C3=O)cc1Cl | not fulfilled
* Cc1ccc(CNC(=O)NCc2cc3c(s2)C(=O)N([C@H]2CCCC(=O)NC2=O)C3)cc1Cl | not fulfilled
* Cc1ccc(NC(=S)NCc2scc3c2CN(C2CCC(=O)NC2=O)C3=O)cc1Cl (centres unmarked) | fulfilled
* Cc1ccc(NC(=O)NCc2cc3c(s2)C(=O)N(C2CCC(=O)NC2=O)C3)cc1Cl (centres unmarked) | not fulfilled

A record lists Cc1ccc(NC(=O)NCc2scc3c2CN(C2CCC(=O)NC2=O)C3=O)cc1C(C)C (centres unmarked) . Is its remaining activity at 0.1 µM below 40%? fulfilled

A record lists Cc1ccc(NC(=O)NCc2scc3c2CN(C2CCC(=O)NC2=O)C3=O)cn1 (centres unmarked) . Is its remaining activity at 0.1 µM below 40%? fulfilled

A record lists `Cc1ccc(NC(=O)NCc2scc3c2CN([C@H]2CCCC(=O)NC2=O)C3=O)cc1C(C)C` . Is its remaining activity at 0.1 µM below 40%? not fulfilled

A record lists Cc1ccc(NC(=O)NCc2scc3c2CN(C2CCC(=O)NC2=O)C3=O)nc1Cl (centres unmarked) . Is its remaining activity at 0.1 µM below 40%? not fulfilled

----------
Test system: MDA-MB-231 cells
Assay: MDA-MB-231 cell viability (CellTiter-Glo)
Assay type: cell-based
Details: Homo sapiens, 72 h, 10 μM compound concentration, 3 days, DMSO = 100.00
Catalogue of compounds with associated viability at 10 µM
Write the numeric value and append its unit.

Field: example entries. Status: answers known.
- Cc1ccc(NC(=O)NCc2cc3c(s2)C(=O)N([C@H]2CCCC(=O)NC2=O)C3)cc1Cl: 64.8%
- Cc1ccc(NC(=O)NCc2csc3c2CN([C@H]2CCCC(=O)NC2=O)C3=O)cc1Cl: 46.7%
- Cc1ccc(NC(=O)NCc2scc3c2CN(C2CCC(=O)NC2=O)C3=O)cc1C(C)C (stereo not shown): 19.3%

Provide viability at 10 µM value for the following compound: Cc1ccc(CNC(=O)NCc2scc3c2CN(C2CCC(=O)NC2=O)C3=O)cc1Cl (stereo not shown) 19.8%

Provide viability at 10 µM value for the following compound: Cc1ccc(NC(=S)NCc2scc3c2CN(C2CCC(=O)NC2=O)C3=O)cc1Cl (stereo not shown) 20.5%

Provide viability at 10 µM value for the following compound: `Cc1cc(C)c(NC(=O)NCc2scc3c2CN([C@H]2CCCC(=O)NC2=O)C3=O)cc1Cl` 53.4%

Provide viability at 10 µM value for the following compound: `Cc1ccc(NC(=O)NCc2scc3c2CN([C@H]2CCCC(=O)NC2=O)C3=O)cc1Cl` 26.3%
